self-cleavage by entry:
B1: HDV Ribozyme (parent)
chain: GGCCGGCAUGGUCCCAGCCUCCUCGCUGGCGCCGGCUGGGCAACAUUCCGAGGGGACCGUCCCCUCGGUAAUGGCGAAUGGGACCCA

Variants of: B1
Measurement Notes: self-cleavage, relative activity (ratio to wild type); higher = more cleavage; co-transcriptional
Give the figure only, with no unit attached.

Solved entries:
| Change | self-cleavage |
| --- | --- |
| U46A G52U | 0.596 |
| A43U A70U | 0.59 |

Now examine the next entry.
// lookup self-cleavage for C26A C36G
0.196
